Test system: Calu-3 cells
Assay: Cytotoxicity, CellTiter-Glo 2.0 Luminescent Cell Viability Assay
Conditions: read-out: CC50 (half-maximal cytotoxic concentration), 48h exposure
Item-by-item account of CC50
Give just the number in µM; leave the unit off.

- MOLECULE: "CC(=O)OC[C@H]1O[C@@H]([S-])[C@H](OC(C)=O)[C@@H](OC(C)=O)[C@@H]1OC(C)=O.CCP(CC)CC.[Au+]"
  TGT: "Calu-3 cells"
  UNIT_STRING: "µM"
  CC50: 3.7
- MOLECULE: "CC[P](CC)(CC)[Au][I]"
  TGT: "Calu-3 cells"
  UNIT_STRING: "µM"
  CC50: 12

Could you now look at the following molecule, please?
Challenge: Entry under review: [Cl][Sb]([Cl])[Cl] [SbCl3, antimony trichloride] . Reported CC50?
Response given: 200

All figures here come from paper PMC8699537.
